This collection of values is drawn from BindingDB's records for doi:10.1021/acs.jmedchem.8b00106.

assay: Agonist activity at VDR in human HL60 cells assessed as induction of cell differentiation after 96 hrs by NBT assay
Measured pEC50 values are reported for all entries that follow.
# pEC50 = -log10(concentration in molar units)

Consider the following illustrative entries.
COMPOUND	pEC50
CCn1c(C(=O)NCCN)ccc1C(CC)(CC)c1ccc(OCCC(O)(CC)CC)c(C)c1	6.81
CCn1c(C(=O)NC(C)CO)ccc1C(CC)(CC)c1ccc(OCC(O)C(C)(C)C)c(C)c1 (configuration not stated)	8.07
CCn1c(C(=O)NCC#N)ccc1C(CC)(CC)c1ccc(OCCC(O)(CC)CC)c(C)c1	5.97
CCOc1ccc(NC(=O)c2ccc(C(CC)(CC)c3ccc(OCCC(O)(CC)CC)c(C)c3)n2CC)cc1	5.79
CCn1c(C(=O)NC(CC(=O)O)C(=O)OC)ccc1C(CC)(CC)c1ccc(OCCC(O)(CC)CC)c(C)c1 (configuration not stated)	7.59
CCC(C)C(NC(=O)c1ccc(C(CC)(CC)c2ccc(OCCC(O)(CC)CC)c(C)c2)n1CC)C(=O)O (configuration not stated)	6.07
CCn1c(C(=O)NCCN(C)C)ccc1C(CC)(CC)c1ccc(OCCC(O)(CC)CC)c(C)c1	7.09
CCOC(=O)CN(C)C(=O)c1ccc(C(CC)(CC)c2ccc(OCCC(O)(CC)CC)c(C)c2)n1CC	6.28

The reported pEC50 of the compound "CCn1c(C(=O)NCCCN(C)C)ccc1C(CC)(CC)c1ccc(OCCC(O)(CC)CC)c(C)c1" was 8.30

Please fill in: pEC50 reported for CCn1c(C(=O)NC(C)CO)ccc1C(CC)(CC)c1ccc(OCCC(O)(CC)CC)c(C)c1 (configuration not stated) = 7.02

---

assay: Agonist activity at VDR in human HL60 cells assessed as induction of cell differentiation after 96 hrs by NBT assay
# strict inequality: EC50 < 400 nM yields fulfilled, everything else yields not fulfilled

COMPOUND	ASSIGNED_CATEGORY
C#CC(C)OC(=O)c1ccc(C(CC)(CC)c2ccc(OCCC(O)(CC)CC)c(C)c2)n1CC (stereo not given)	not fulfilled

Bench note: check whether "CCN(CC)CCNC(=O)c1ccc(C(CC)(CC)c2ccc(OCCC(O)(CC)CC)c(C)c2)n1CC" shows EC50 below 400 nM fulfilled

Please check: EC50 for CCn1c(C(=O)NC(C)C(=O)O)ccc1C(CC)(CC)c1ccc(OCCC(O)(CC)CC)c(C)c1 (stereo not given) , strictly under 400 nM or not? fulfilled

Please let me know if CCC(C)C(CO)NC(=O)c1ccc(C(CC)(CC)c2ccc(OCCC(O)(CC)CC)c(C)c2)n1CC (stereo not given) shows EC50 below 400 nM. not fulfilled

Here's an entry: "CCn1c(C(=O)Nc2cccc(C(F)(F)F)c2)ccc1C(CC)(CC)c1ccc(OCCC(O)(CC)CC)c(C)c1" . Is its EC50 below 400 nM? not fulfilled

---

test: Agonist activity at VDR in human HL60 cells assessed as induction of cell differentiation after 96 hrs by NBT assay
Catalogue of molecules with associated log10 of EC50
Hello, just confirming the data are log10 of EC50 with units of nM.

Some solved cases for reference:
MOLECULE	READOUT_NAME	VALUE_OBSERVED
CCN(CC)CCCNC(=O)c1ccc(C(CC)(CC)c2ccc(OCCC(O)(CC)CC)c(C)c2)n1CC	log10 of EC50	1.04
C#CCCOC(=O)c1ccc(C(CC)(CC)c2ccc(OCCC(O)(CC)CC)c(C)c2)n1CC	log10 of EC50	3.78
CCn1c(C(=O)N(C)CCO)ccc1C(CC)(CC)c1ccc(OCCC(O)(CC)CC)c(C)c1	log10 of EC50	1.72
CCn1c(C(=O)N(C)CC(=O)O)ccc1C(CC)(CC)c1ccc(OCCC(O)(CC)CC)c(C)c1	log10 of EC50	1.95
CCn1c(C(=O)NC(CO)CCO)ccc1C(CC)(CC)c1ccc(OCCC(O)(CC)CC)c(C)c1 (centres undefined)	log10 of EC50	3.40

Could you now consider this next molecule?
log10 of EC50 reading for "CCn1c(C(=O)NCCCN2CCOCC2)ccc1C(CC)(CC)c1ccc(OCCC(O)(CC)CC)c(C)c1" : 2.38
